- Test system: cos-7 cells
- measurementProtocol: DNA transfection: luciferase expression relative to Lipofectamine 2000
- Type: cell-based
- statedConditions: 10 w/w lipid to DNA; 300 ng DNA per well; luciferase assay after 48 hours
Record form. Attribute: % of the luciferase activity obtained from the use of Lipofectamine 2000. Fill in for each entry.
Note: unit % is implicit; provide only the numeric part.

Name the recorded % of the luciferase activity obtained from the use of Lipofectamine 2000 for CCCCCCCCCCCCCCCOC(=O)CC[N+](C)(CCC[N+](C)(CCO)CCO)CCC(=O)OCCCCCCCCCCCCCCC . 42.4

Entry to check: CCCCCCCCCCCCCCCOC(=O)CCN(CCC(=O)OCCCCCCCCCCCCCCC)CCC1CCCN1C (centres unmarked) 43.5

Entry to check: CCCCCCCCCCCCCCCOC(=O)CC[N+](C)(CCC[N+](C)(CCC(=O)OCCCCCCCCCCCCCCC)CCC(=O)OCCCCCCCCCCCCCCC)CCC(=O)OCCCCCCCCCCCCCCC 57.1

Entry to check: CCCCCCCCCCCCCOC(=O)CCN(CCCN(CCO)CCO)CCC(=O)OCCCCCCCCCCCCC 38.4

Entry to check: CCCCCCCCCCCCCOC(=O)CCN(CCC(=O)OCCCCCCCCCCCCC)CCN(CCO)CCO 22.6

###

- System: cos-7 cells
- measurementProtocol: DNA transfection: luciferase expression relative to Lipofectamine 2000
- Format: cell-based
- statedConditions: lipid/DNA 25 w/w; 300 ng Luciferase DNA per well; luciferase assay after 48 hours
Record form. Attribute: Luciferase expression as a percentage of that achieved using Lipofectamine 2000. Fill in for each entry.
Note: unit % is implicit; provide only the numeric part.

Name the recorded Luciferase expression as a percentage of that achieved using Lipofectamine 2000 for CCCCCCCCCCCCCCCOC(=O)CCN(CCCO)CCC(=O)OCCCCCCCCCCCCCCC . 0.1

Entry to check: CCCCCCCCCCCCCCOC(=O)CCN(CCC(=O)OCCCCCCCCCCCCCC)CC(C)(C)CO 0.1

Entry to check: CCCCCCCCCCCCOC(=O)CCN1CCCN(CCC(=O)OCCCCCCCCCCCC)CC1 0.6

Entry to check: CCCCCCCCCCCCOC(=O)CCN(CCOCCO)CCC(=O)OCCCCCCCCCCCC 174.1

Entry to check: CCCCCCCCCCCCCCCOC(=O)CCN(CCC(=O)OCCCCCCCCCCCCCCC)C(C)(CO)CO 0.4

Entry to check: CCCCCCCCCCCCCCCOC(=O)CCN(CCC(=O)OCCCCCCCCCCCCCCC)CC(OC)OC 0.0

Entry to check: CCCCCCCCCCCCCCCOC(=O)CC[N+](C)(CCC(=O)OCCCCCCCCCCCCCCC)CCC1OCCO1.[I-] 0.0

Entry to check: CCCCCCCCCCOC(=O)CC[N+](C)(CCC(=O)OCCCCCCCCCC)CC1COC(C)(C)O1.[I-] (centres unmarked) 0.0

Entry to check: CCCCCCCCCCCCCCCOC(=O)CCN(CCC(=O)OCCCCCCCCCCCCCCC)CC(C)O (centres unmarked) 0.4

Entry to check: CCCCCCCCCCCCOC(=O)CCN(CCO)CCN(CCO)CCC(=O)OCCCCCCCCCCCC 6.6

Entry to check: CCCCCCCCCCOC(=O)CCN(CCCN(C)C)CCC(=O)OCCCCCCCCCC 1.5

Entry to check: CCCCCCCCCCCCCCOC(=O)CCN(CCCCCO)CCC(=O)OCCCCCCCCCCCCCC 0.4

Entry to check: CCCCCCCCCCOC(=O)CC[N+](C)(CCCOC)CCC(=O)OCCCCCCCCCC.[I-] 0.4

Entry to check: CCCCCCCCCCCCCCOC(=O)CCN(CCOC)CCC(=O)OCCCCCCCCCCCCCC 0.1

Entry to check: CCCCCCCCCCCCCCOC(=O)CC[N+](C)(CCC(=O)OCCCCCCCCCCCCCC)CC1COC(C)(C)O1.[I-] (centres unmarked) 0.0

Entry to check: CCCCCCCCCCCCCCOC(=O)CCN1CCCN(CCC(=O)OCCCCCCCCCCCCCC)CC1 0.3

Entry to check: CCCCCCCCCCCCCCCOC(=O)CCN(CCO)CCN(CCC(=O)OCCCCCCCCCCCCCCC)CCC(=O)OCCCCCCCCCCCCCCC 34.5

###

- measurementProtocol: DNA delivery: raw luciferase expression (relative light units) of best-transfecting lipids
- Assay type: cell-based
- statedConditions: lipid/DNA 10 w/w; 300 ng of DNA per well
measurementKind: Raw values for luciferase expression (relative lights units)
Note: unit relative lights units is implicit; provide only the numeric part.

Name the recorded Raw values for luciferase expression for CCCCCCCCCCCCNC(=O)CCN(CCC(=O)NCCCCCCCCCCCC)CCN(CCC(=O)NCCCCCCCCCCCC)CCN(CCC(=O)NCCCCCCCCCCCC)CCN(CCC(=O)NCCCCCCCCCCCC)CCC(=O)NCCCCCCCCCCCC . 1824773

Entry to check: CCCCCCCCCCCCNC(=O)CCN(C)CCN(CCC(=O)NCCCCCCCCCCCC)CCC(=O)NCCCCCCCCCCCC 7977064

Entry to check: CCCCCCCCCCCCCCNC(=O)CCN(CCO)CCN(CCC(=O)NCCCCCCCCCCCCCC)CCC(=O)NCCCCCCCCCCCCCC 1151621

Entry to check: CCCCCCCCCCCCCCCNC(=O)CCN(C)CCN(CCC(=O)NCCCCCCCCCCCCCCC)CCC(=O)NCCCCCCCCCCCCCCC 834849

Entry to check: CCCCCCCCCCCCCCCCNC(=O)CCN(CCCN(CCO)CCO)CCC(=O)NCCCCCCCCCCCCCCCC 1207376

Entry to check: CCCCCCCCCCCCCCNC(=O)CCN(CCO)CCN(CCO)CCC(=O)NCCCCCCCCCCCCCC 2886271

Entry to check: CCCCCCCCCCCCCCNC(=O)CCN(C)CCCN(CCC(=O)NCCCCCCCCCCCCCC)CCC(=O)NCCCCCCCCCCCCCC 2048655

Entry to check: CCCCCCCCCCCCCCNC(=O)CCN(C)CCN(CCC(=O)NCCCCCCCCCCCCCC)CCC(=O)NCCCCCCCCCCCCCC 1906488

Entry to check: CCCCCCCCCCCCCCNC(=O)CCN(C)CCCN(C)CCC(=O)NCCCCCCCCCCCCCC 3031718

Entry to check: CCCCCCCCCCCCCCCCNC(=O)CCN(C)CCCN(C)CCC(=O)NCCCCCCCCCCCCCCCC 1388102

Entry to check: CCCCCCCCCCCCCCCCNC(=O)CCN(CCC(=O)NCCCCCCCCCCCCCCCC)CCN(CCO)CCO 595340

Entry to check: CCCCCCCCCCCCCCNC(=O)CCN(C)CCN(C)CCC(=O)NCCCCCCCCCCCCCC 2401570

Entry to check: CCCCCCCCCCCCCCCNC(=O)CCN(CCC(=O)NCCCCCCCCCCCCCCC)CCN(CCO)CCO 1513703

Entry to check: CCCCCCCCCCCCNC(=O)CCN(CCCCCCO)CCC(=O)NCCCCCCCCCCCC 2043526

Entry to check: CCCCCCCCCCCCNC(=O)CCN(CCOCCO)CCC(=O)NCCCCCCCCCCCC 1154404

###

- System: cos-7 cells
- measurementProtocol: DNA transfection: luciferase expression relative to Lipofectamine 2000
- Format: cell-based
- statedConditions: lipid/DNA 25 w/w; 300 ng Luciferase DNA per well; luciferase assay after 48 hours
Returns one of 1 or -1; 1 when Luciferase expression as a percentage of that achieved using Lipofectamine 2000 is >= 0.1%.

Determine whether measured Luciferase expression as a percentage of that achieved using Lipofectamine 2000 meets or exceeds 0.1% for CCCCCCCCCCCCCCCOC(=O)CCN(CCC(=O)OCCCCCCCCCCCCCCC)CC(O)CO (stereo not drawn) 1

Entry to check: CCCCCCCCCCCCCCCCCCOC(=O)CCN(CCC(=O)OCCCCCCCCCCCCCCCCCC)CCC1OCCO1 -1

Entry to check: CCCCCCCCCCCCCCOC(=O)CC[N+](C)(CCCOC)CCC(=O)OCCCCCCCCCCCCCC.[I-] 1

Entry to check: CCCCCCCCCCCCCCCOC(=O)CCN(CCCN(CCO)CCO)CCC(=O)OCCCCCCCCCCCCCCC 1

Entry to check: CCCCCCCCCCCCCCCCCCOC(=O)CCN(CCC(=O)OCCCCCCCCCCCCCCCCCC)CCc1ccc(OC)c(OC)c1 -1

Entry to check: CCCCCCCCCCCCOC(=O)CCN(CCN(CCC(=O)OCCCCCCCCCCCC)C(C)C)C(C)C 1

Entry to check: CCCCCCCCCCCCCCOC(=O)CCN(CCCN(CCO)CCO)CCC(=O)OCCCCCCCCCCCCCC 1

Entry to check: CCCCCCCCCCCCCCOC(=O)CCN(CCC(=O)OCCCCCCCCCCCCCC)C1CCC(O)CC1 (stereo not drawn) 1

Entry to check: CCCCCCCCCCCCCCCOC(=O)CCN(CCC(=O)OCCCCCCCCCCCCCCC)CCc1ccc(OC)c(OC)c1 1

Entry to check: CCCCCCCCCCCCCCCCCCOC(=O)CCN(CCC(=O)OCCCCCCCCCCCCCCCCCC)CC1COC(C)(C)O1 (stereo not drawn) -1

Entry to check: CCCCCCCCCCCCNC(=O)CCN(CCC(=O)NCCCCCCCCCCCC)CCN(CCO)CCO -1

Entry to check: CCCCCCCCCCCCCCCOC(=O)CCN(CCOCC)CCC(=O)OCCCCCCCCCCCCCCC -1

Entry to check: CCCCCCCCCCCCCCCCCCOC(=O)CCN(CCC(=O)OCCCCCCCCCCCCCCCCCC)C[C@H](C)O -1

Entry to check: CCCCCCCCCCCCNC(=O)CCN(CCCN(CCO)CCO)CCC(=O)NCCCCCCCCCCCC -1

Entry to check: CCCCCCCCCCCCOC(=O)CCN(CCC(=O)OCCCCCCCCCCCC)CCc1c[nH]cn1 1

Entry to check: CCCCCCCCCCCCOC(=O)CCN(CCC(=O)OCCCCCCCCCCCC)CCC1CCCN1C (stereo not drawn) 1

Entry to check: CCCCCCCCCCOC(=O)CCN(CCC(=O)OCCCCCCCCCC)C[C@@H](C)O 1

Entry to check: CCCCCCCCCCCCOC(=O)CCN(CCCN(C)C)CCC(=O)OCCCCCCCCCCCC 1
